- Experimental Target: Cytochrome P450 3A4 (Homo sapiens);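 also: confirmatory qHTS run detecting inhibitors and substrates of CYP3A4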
- Sequence (P08684 whole entry): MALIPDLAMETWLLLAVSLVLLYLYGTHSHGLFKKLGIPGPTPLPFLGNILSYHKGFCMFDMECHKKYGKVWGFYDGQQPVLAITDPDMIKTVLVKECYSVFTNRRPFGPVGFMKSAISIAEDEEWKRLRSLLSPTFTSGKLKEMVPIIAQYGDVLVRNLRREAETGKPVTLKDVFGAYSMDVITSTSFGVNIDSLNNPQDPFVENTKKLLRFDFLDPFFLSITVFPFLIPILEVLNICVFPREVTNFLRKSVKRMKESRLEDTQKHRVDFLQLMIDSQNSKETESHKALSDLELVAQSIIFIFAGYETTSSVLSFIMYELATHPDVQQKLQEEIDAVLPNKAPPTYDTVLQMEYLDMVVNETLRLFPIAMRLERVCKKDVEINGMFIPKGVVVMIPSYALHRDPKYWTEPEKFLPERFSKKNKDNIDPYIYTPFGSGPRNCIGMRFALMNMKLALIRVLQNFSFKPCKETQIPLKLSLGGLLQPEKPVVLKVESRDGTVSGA
- Assay Conditions: Potency

>  <Compound>
CCCn1c(-c2ccc(F)cc2)nc2c(NCCN(C(C)C)C(C)C)nc(C)nc21

>  <AC50>
10 µM (inconclusive)

$$$$
>  <Compound>
CCC/C=C/C1C(=O)C2OC2C2(OCC(CC)(CC)CO2)C1CO (stereo not drawn)

>  <AC50>
3.98 µM (inconclusive)

$$$$
>  <Compound>
COC1C=CO[C@@]2(C)Oc3c(C)c(O)c4c(O)c(c5c(nc6cc(C)ccn65)c4c3C2=O)NC(=O)/C(C)=C\C=CC(C)C(O)[C@@H](C)C(O)C(C)[C@@H](OC(C)=O)C1C (stereo partly drawn)

>  <AC50>
7.94 µM (inconclusive)

$$$$
>  <Compound>
COC(=O)c1cccc(C23CC4(C2)[C@H](CN(Cc2ccc(C(F)(F)F)cc2)[C@@H]4c2ccccc2)C3c2ccc(Cl)nc2)c1 (stereo partly drawn)

>  <AC50>
3.98 µM (inconclusive)

$$$$
>  <Compound>
CCN(CC)CCCC(C)n1c(-c2ccccc2)nc2c(N3CCOCC3)nc(C)nc21 (stereo not drawn)

>  <AC50>
15.8 µM (inconclusive)

$$$$
>  <Compound>
S=c1ccss1 [DITHIOLETHIONE]

>  <AC50>
10 µM (inconclusive)

$$$$
>  <Compound>
N#Cc1nn(-c2c(Cl)cc(C(F)(F)F)cc2Cl)c(N)c1[S+]([O-])C(F)(F)F (stereo not drawn) [FIPRONIL]

>  <AC50>
25.1 µM (inconclusive)

$$$$
>  <Compound>
C#CCCCCCCCCCCCC(O)CC(O)COC(C)=O (stereo not drawn) [AVOCADYNE ACETATE]

>  <AC50>
39.8 µM (inconclusive)

$$$$
